# tgt: Polyunsaturated fatty acid 5-lipoxygenase (Homo sapiens, UniProt P09917)
# procedure-summary: Inhibition of 5-LOX in human PMNL cells
# Type: cell-based
observation-type: IC50 (µM)

INSERT INTO measurements (compound, readout_unit, measured_number) VALUES
  ('O=C1C=C(O)C(=O)C(CC2CCC3CCCCC3C2)=C1O (stereo not given)', 'µM', 10);

(I) CCCCCCCCCCCCc1c(O)c(O)cc(OC)c1OC
(II) Oc1cc(O)c(O)c(CC2CCC3CCCCC3C2)c1O (stereo not given)
(III) COC1=CC(=O)C(O)=C(C[C@]2(C)CC[C@@]3(C)C(C)=CCC[C@@H]3[C@@H]2C)C1=O
(IV) CCCCCCCCCCCC1=C(O)C(=O)C=C(O)C1=O
Arrange the 4 compounds by rising IC50, starting with the smallest. Returns: the labels listed in the requested order.
I, IV, II, III
(I: 0.03 µM, IV: 1.5 µM, II: 4.4 µM, III: 10 µM)

---

# tgt: Polyunsaturated fatty acid 5-lipoxygenase (Homo sapiens, UniProt P09917)
# procedure-summary: Inhibition of 5-lipoxygenase in human PMNL cells using arachidonic acid as substrate preincubated with compound for 15 mins followed by A23187 and substrate addition and measured after 10 mins by HPLC analysis
# Assay type: cell-based
observation-type: IC50 (nM)

INSERT INTO results (smi, measured_number) VALUES
  ('Oc1ccc(-c2ccc3c(c2)OCCO3)cc1O', 240);

(A) Oc1ccc(-c2ccc(Cl)cc2)cc1O
(B) Oc1ccc(-c2ccc(O)c(O)c2)cc1
(C) Oc1ccc(-c2c3ccccc3cc3ccccc23)cc1O
Arrange the 3 molecules by rising IC50, starting with the smallest. Returns: the labels listed in the requested order.
A, B, C

---

# tgt: Polyunsaturated fatty acid 5-lipoxygenase (Homo sapiens)
# procedure-summary: Inhibition of recombinant human 5-lipoxygenase expressed in Escherichia coli BL21 using arachidonic acid as substrate preincubated for 5 to 10 mins with compound followed by substrate addition and measured after 10 mins by HPLC analysis
pIC50: −log10 of the molar value.
observation-type: pIC50

INSERT INTO assay_data (smi, observation_type, measured_number) VALUES
  ('Oc1ccc(-c2cccc3c2sc2ccccc23)cc1O', 'pIC50', 8.15),
  ('Oc1ccc(-c2ccc3ccccc3c2)cc1O', 'pIC50', 8.15),
  ('Oc1ccc(-c2ccc3c(c2)OCCO3)cc1O', 'pIC50', 7.40),
  ('Oc1ccc(-c2ccc(Cl)cc2)cc1O', 'pIC50', 7.70);

(A) Oc1ccc(-c2cccc(Cl)c2)cc1O
(B) Oc1ccc(-c2cccc3c2Sc2ccccc2S3)cc1O
(C) Oc1ccc(-c2cccc3c2oc2ccccc23)cc1O
Output the entries ranked by pIC50 from maximum down to minimum. Returns: the labels listed in the requested order.
B, A, C

---

# tgt: Polyunsaturated fatty acid lipoxygenase ALOX12 (Homo sapiens) (UniProt P18054)
# Sequence (whole entry): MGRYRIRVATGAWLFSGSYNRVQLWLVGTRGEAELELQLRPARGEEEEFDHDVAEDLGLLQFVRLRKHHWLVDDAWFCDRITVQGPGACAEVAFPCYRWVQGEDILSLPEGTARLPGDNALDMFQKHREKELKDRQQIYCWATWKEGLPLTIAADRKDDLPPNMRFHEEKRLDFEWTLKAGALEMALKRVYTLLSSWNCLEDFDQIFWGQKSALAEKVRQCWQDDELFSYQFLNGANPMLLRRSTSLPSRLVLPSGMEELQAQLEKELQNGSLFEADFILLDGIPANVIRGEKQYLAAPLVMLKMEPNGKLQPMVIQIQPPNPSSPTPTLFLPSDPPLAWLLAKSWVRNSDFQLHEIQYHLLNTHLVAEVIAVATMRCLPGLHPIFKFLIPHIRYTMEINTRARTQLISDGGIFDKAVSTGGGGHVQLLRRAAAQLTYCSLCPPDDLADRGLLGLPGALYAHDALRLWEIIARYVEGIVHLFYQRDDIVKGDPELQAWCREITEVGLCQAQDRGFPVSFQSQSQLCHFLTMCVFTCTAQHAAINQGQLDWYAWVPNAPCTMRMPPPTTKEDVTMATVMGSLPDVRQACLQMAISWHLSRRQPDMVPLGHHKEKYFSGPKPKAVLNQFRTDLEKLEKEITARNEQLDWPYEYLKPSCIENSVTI
# procedure-summary: Inhibition of 12-lipoxygenase in human PMNL cells using arachidonic acid as substrate assessed as residual activity at 10 uM preincubated with compound for 15 mins followed by A23187 and substrate addition and measured after 10 mins by HPLC analysis relative to control
# Assay type: cell-based
# study-conditions: time 25.0 min
observation-type: Activity (%)

INSERT INTO measurements (smi, observation_type, readout_unit, measured_number) VALUES
  ('Oc1ccc(-c2ccc(O)c(O)c2)cc1', 'Activity', '%', 75);

(A) Oc1ccc(-c2cccc3c2sc2ccccc23)cc1O
(B) Oc1ccc(-c2c3ccccc3cc3ccccc23)cc1O
Identify the entry with the smaller Activity: A or B . In your reply, give the label of the chosen option.
B

---

# tgt: Polyunsaturated fatty acid 5-lipoxygenase (Homo sapiens, UniProt P09917)
# procedure-summary: Inhibition of recombinant human 5-lipoxygenase expressed in Escherichia coli BL21 using arachidonic acid as substrate preincubated for 5 to 10 mins with compound followed by substrate addition and measured after 10 mins by HPLC analysis
observation-type: IC50 (nM)

INSERT INTO results (smi, tgt, measured_number) VALUES
  ('Oc1ccc(-c2c3ccccc3cc3ccccc23)cc1O', 'Polyunsaturated fatty acid 5-lipoxygenase (Homo sapiens, UniProt P09917)', 10);

(P) Oc1ccc(-c2cc3ccccc3o2)cc1O
(Q) CCOc1ccc2ccccc2c1-c1ccc(O)c(O)c1
(R) Oc1ccc(-c2ccc(O)c(O)c2)cc1
(S) Oc1ccc(-c2ccccc2)cc1O
Output the entries ranked by IC50 from maximum down to minimum. Returns: the labels listed in the requested order.
R, S, P, Q
(R: 210 nM, S: 50 nM, P: 30 nM, Q: 10 nM)

---

# tgt: Polyunsaturated fatty acid 5-lipoxygenase (Homo sapiens, UniProt P09917)
# Sequence (P09917 whole entry): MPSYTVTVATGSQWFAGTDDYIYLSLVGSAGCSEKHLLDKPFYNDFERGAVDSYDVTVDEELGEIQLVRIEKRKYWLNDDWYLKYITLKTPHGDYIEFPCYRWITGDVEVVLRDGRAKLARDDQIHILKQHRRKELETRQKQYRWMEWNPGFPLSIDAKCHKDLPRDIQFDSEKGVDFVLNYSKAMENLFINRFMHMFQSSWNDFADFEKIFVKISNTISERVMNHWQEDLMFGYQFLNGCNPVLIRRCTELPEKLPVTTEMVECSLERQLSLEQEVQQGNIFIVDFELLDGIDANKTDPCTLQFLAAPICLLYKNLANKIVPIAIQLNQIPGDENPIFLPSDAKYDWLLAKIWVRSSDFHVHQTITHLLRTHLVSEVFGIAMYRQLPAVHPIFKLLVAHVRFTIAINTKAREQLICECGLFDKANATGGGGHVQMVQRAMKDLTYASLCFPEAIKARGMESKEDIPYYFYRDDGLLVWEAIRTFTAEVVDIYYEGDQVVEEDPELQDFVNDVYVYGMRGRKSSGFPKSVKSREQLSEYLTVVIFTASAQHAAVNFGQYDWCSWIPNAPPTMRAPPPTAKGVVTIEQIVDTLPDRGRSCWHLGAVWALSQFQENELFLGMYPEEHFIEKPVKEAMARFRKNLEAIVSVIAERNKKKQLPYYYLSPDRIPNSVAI
# procedure-summary: Inhibition of 5-lipoxygenase in human PMNL cells using arachidonic acid as substrate preincubated with compound for 15 mins followed by A23187 and substrate addition and measured after 10 mins by HPLC analysis
# Format: cell-based
pIC50: −log10 of the molar value.
observation-type: pIC50

INSERT INTO results (smi, tgt, measured_number) VALUES
  ('Oc1ccc(-c2cc3ccccc3o2)cc1O', 'Polyunsaturated fatty acid 5-lipoxygenase (Homo sapiens, UniProt P09917)', 5.95),
  ('Oc1ccc(-c2cccc3c2sc2ccccc23)cc1O', 'Polyunsaturated fatty acid 5-lipoxygenase (Homo sapiens, UniProt P09917)', 6.60),
  ('Oc1ccc(-c2ccc3ccccc3c2)cc1O', 'Polyunsaturated fatty acid 5-lipoxygenase (Homo sapiens, UniProt P09917)', 6.49);

(A) CCOc1ccc2ccccc2c1-c1ccc(O)c(O)c1
(B) Oc1ccc(-c2ccccc2)cc1O
Identify the entry with the smaller pIC50: A or B . In your reply, give the label of the chosen option.
B
(B: 6.33, A: 6.57)

---

# tgt: UniProt:P09917
# procedure-summary: Inhibition of 5-lipoxygenase in human PMNL cells using arachidonic acid as substrate preincubated with compound for 15 mins followed by A23187 and substrate addition and measured after 10 mins by HPLC analysis
# Assay type: cell-based
observation-type: IC50 (nM)

INSERT INTO assay_data (smi, observation_type, readout_unit, measured_number) VALUES
  ('Oc1ccc(-c2cccc(Cl)c2)cc1O', 'IC50', 'nM', 210),
  ('Oc1ccc(-c2cccc3c2Sc2ccccc2S3)cc1O', 'IC50', 'nM', 230),
  ('Oc1ccc(-c2cccc3c2oc2ccccc23)cc1O', 'IC50', 'nM', 210);
